Hey, just so you know, these numbers are from PubChem BioAssay (EPA / NIEHS).

# Target system: mouse Peroxisome Proliferator-activated Receptor gamma (PPARg), Pparg (gene 19016)
# Measurement protocol: ATG_mPPARg_XSP2: Attagene TRANS-FACTORIAL Multi-Species (XSP2) HepG2 Assay for mouse Peroxisome Proliferator-activated Receptor gamma (PPARg) (AID 2283830);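 note: hits are gains in reporter mRNA above DMSO so AC50 marks activation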
# Experimental: ATG_XSP2_multi-species_TRANS is a cell-based, multiplexed assay created by modifying the existing Attagene TRANS-FACTORIAL system to include a panel of nuclear receptors from some or all the following species: human (Homo sapiens), mouse (Mus musculus), frog (Xenopus laevis), zebrafish (Danio rerio), chicken (Gallus gallus), and turtle (Chrysemys picta). The ECOTOX-FACTORIAL format uses HepG2, a human liver cell line, with measurements taken at 24 hours after chemical dosing in a 24-well plate. […]
Results filed as inconclusive are left out. Calls of active or inactive are those of the source. Rule for the calls: active = hit-call score of the fitted dose curve at least 0.9, where 1 is the maximum; inconclusive = response in the unintended direction; inactive = score below 0.9.
Outcomes: active, inactive

* CC1(C)C(C=C(Cl)Cl)C1C(=O)OC(C#N)c1cccc(Oc2ccccc2)c1 (configuration not stated) | active
* CCN(CC)C(=O)C(C)Oc1cccc2ccccc12 (configuration not stated) | active
* COP(=S)(OC)Oc1ccc([N+](=O)[O-])c(C)c1 | active
* CC1(C)CCC(=Cc2ccc(Cl)cc2)C1(O)Cn1cncn1 (configuration not stated) | inactive
* CC(C)NC(=O)N1CC(=O)N(c2cc(Cl)cc(Cl)c2)C1=O | active
* CSC(=O)c1c(C(F)F)nc(C(F)(F)F)c(C(=O)SC)c1CC(C)C | active
* N#Cc1c[nH]cc1-c1cccc2c1OC(F)(F)O2 | active
